Hey, just so you know, these numbers are from patent US20180086841A1.

For each entry below, report its fold EC50 against 131AVH6VL6-hIgG1 value.
system: T1, human CD27 (human, UniProt P26842 21-260)
T1 construct: also called hCD27; HsCD27
assay remarks: cell ELISA on transfected CHO cells

May I ask what fold EC50 against 131AVH6VL6-hIgG1 has been recorded for hCD27.131A VH7VL6 huIgG4 (antibody, V domains shown) VH: EIQLVQSGAEVKKPGASVKISCKASGYTFTNYGMNWVKQAPGQGLKWMGWINTNTGEPTYAEEFKGRFTFTLDTSATTAYLEISSLRSEDTAVYYCAREGDAMDYWGQGTTVTVSS VL: EIVLTQSPATLSLSPGERATLSCSASSSVSYMHWYQQKPGQAPKRWIYDTSKLASGVPARFSGSGSGTDYSLTISSLEPEDFAVYYCQQWNSYPFTFGQGTKLEIK ?
≤ 2 fold

Further, for hCD27.131A VH6VL8 huIgG4 (antibody, V domains shown) VH: EIQLVQSGAEVKKPGASVKVSCKASGYTFTNYGMNWVKQAPGQGLKWMGWINTNTGEPTYAEEFKGRFTFTLDTSISTAYMELSSLRSEDTAVYYCAREGDAMDYWGQGTTVTVSS VL: EIVLTQSPATLSASPGERVTLSCSASSSVSYMHWYQQKPGQAPKRWIYDTSKLASGVPARFSGSGSGTDYSLTISSMEPEDFAVYYCQQWNSYPFTFGQGTKLEIK ?
≤ 2 fold
